- assay.method.text: A CellTox Green Cytotoxicity Assay to monitor cytotoxicity in HEK293 cells - 16 hour (AID 1224888); further: nearly all actives have a fitted effect of over 35% in size; further: potency means the concentration at half of the fitted maximal effect
- condition.summary: CellTox Green fluorescence; series mostly up to 76.8 µM
Results filed as inconclusive are left out. Active and inactive are the calls of the source. The call rests on the fitted dose curve; in most records, active means well fitted activation curve with a large enough effect in the repeat runs; inconclusive means weak or mixed curves; inactive means flat fitted curve, though single readings scatter.
readout: Potency

Illustrative cases are given below, each with its answer.
CC(O)C#N (stereo not drawn) :: inactive
CN(C)C1CSSSC1 :: inactive
SCc1ccco1 :: inactive
COP(=O)(CCC(=O)NCO)OC :: inactive
C=CC(=O)OCC(COC(=O)C=C)(COC(=O)C=C)COC(=O)C=C :: inactive
Cc1cc(SCc2sc(-c3ccc(C(F)(F)F)c(F)c3)nc2C)ccc1OCC(=O)O :: inactive

Data request, read-out Potency, for COC(=O)N(C(=O)N1COC2(C(=O)OC)Cc3cc(Cl)ccc3C2=N1)c1ccc(OC(F)(F)F)cc1 (stereo not drawn) inactive

Data request, read-out Potency, for Oc1ccc(C2(c3ccc(O)cc3)c3ccccc3-c3ccccc32)cc1 inactive

Data request, read-out Potency, for N#CCCC(Br)(C#N)CBr (stereo not drawn) 54.9 µM (active)

Data request, read-out Potency, for Nc1ccc([N+](=O)[O-])cc1Cl inactive

----------
- target.desc: Thyrotropin-releasing hormone receptor (Homo sapiens) (UniProt P34981)
- Sequence (P34981 whole entry, looked up): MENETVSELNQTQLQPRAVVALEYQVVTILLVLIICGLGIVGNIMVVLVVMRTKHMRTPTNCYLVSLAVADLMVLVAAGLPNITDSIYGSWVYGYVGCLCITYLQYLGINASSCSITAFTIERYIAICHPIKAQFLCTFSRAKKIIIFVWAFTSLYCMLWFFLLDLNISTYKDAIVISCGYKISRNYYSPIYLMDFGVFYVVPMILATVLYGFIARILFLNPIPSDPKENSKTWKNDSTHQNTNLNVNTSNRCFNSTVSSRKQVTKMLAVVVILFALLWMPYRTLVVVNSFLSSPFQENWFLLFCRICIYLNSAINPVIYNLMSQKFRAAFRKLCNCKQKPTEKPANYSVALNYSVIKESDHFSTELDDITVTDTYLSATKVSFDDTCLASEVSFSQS
- assay.method.text: qHTS assay to identify small molecule antagonists of the thyrotropin-releasing hormone receptor (TRHR) signaling pathway (AID 1346877)
- condition.summary: TRHR-HEK293, TRH-induced calcium fluorescence, antagonist mode; series mostly up to 51.3 µM
Activity calls are given as the source filed them. Calls follow the shape of the dose curve; as a rule, active = well fitted inhibition curve with a large enough effect in the repeat runs (not every such curve was filed as active); inconclusive = weak or mixed curves; inactive = flat fitted curve, though single readings scatter.
readout: outcome

Illustrative cases are given below, each with its answer.
CC(C)OC(=O)C(O)(c1ccc(Cl)cc1)c1ccc(Cl)cc1 :: inactive
[Cl][Sb]([Cl])[Cl] :: inactive
O=[N+]([O-])c1cc([N+](=O)[O-])c2ccccc2c1 :: inactive
CCCCCCCCCCBr :: inactive
c1ccc(Nc2ccc3ccccc3c2)cc1 :: inactive
CCOCCOC(C)=O :: inactive
CC(C)OC(=S)S :: inactive
BrCBr :: inactive

// next item, outcome requested
For Thyrotropin-releasing hormone receptor (Homo sapiens) (UniProt P34981), provide outcome of O=[N+]([O-])c1cc(Cl)ccc1Cl please. inactive

----------
- assay.method.text: qHTS RealTime-Glo MT Cell Viability Assay in HEK293 cells - 32 hour (AID 1224868); further: nearly all actives have a fitted effect of over 50% in size; further: potency means the concentration at half of the fitted maximal effect
- condition.summary: RealTime-Glo luminescence; series mostly up to 76.8 µM
Records with an inconclusive call do not appear. Activity calls are given as the source filed them. Calls follow the shape of the dose curve; as a rule, active = well fitted cell-killing curve with a large enough effect in the repeat runs; inconclusive = weak or mixed curves, or effect the other way; inactive = flat fitted curve, though single readings scatter.
readout: Potency

ClC(Cl)=C(Cl)Cl :: inactive
COc1ccc(OC)c(CC(C)N)c1 (stereo unspecified) :: inactive
CN(CCCC(=O)c1cccnc1)N=O :: inactive
CCCCCCCCc1ccc(O)cc1 :: 5.53 µM (active)
C[C@]12CC[C@H](O)C[C@H]1CC[C@@H]1[C@@H]2C[C@@H](O)[C@]2(C)[C@@H](C3=CC(=O)OC3)CC[C@]12O :: 0.692 µM (active)

Data request, read-out Potency, for COC12CC[C@@]3(C[C@@H]1C(C)(O)C(C)(C)C)[C@H]1Cc4ccc(O)c5c4[C@@]3(CCN1CC1CC1)[C@H]2O5 (stereo partly specified) 24.4 µM (active)

----------
- target.desc: Estrogen receptor (Homo sapiens)
- assay.method.text: qHTS assay to identify small molecule agonists of the estrogen receptor alpha (ER-alpha) signaling pathway using the BG1 cell line (AID 743079); further: nearly all actives have a fitted effect of over 20% in size
- condition.summary: BG1Luc4E2 cells, ERE-luciferase agonist, 22 h; series mostly up to 70.3 µM
Inconclusive results are not listed. Activity calls are given as the source filed them. Calls follow the shape of the dose curve; as a rule, active = well fitted activation curve with a large enough effect in the repeat runs; inconclusive = weak or mixed curves, or effect the other way; inactive = no such curve, though single readings can be large or run the other way.
Pick from active, inactive when you respond.

Check the results log: what was the call for CC(=O)c1cc(C(C)(C)C)cc2c1CCC2(C)C ? inactive

Check the results log: what was the call for CC1(C)CN=C(NN=C(/C=C/c2ccc(C(F)(F)F)cc2)/C=C/c2ccc(C(F)(F)F)cc2)NC1 ? active

Check the results log: what was the call for C[C@H]1CC[C@@H]2[C@@H](C)[C@H]3[C@H](C[C@H]4[C@@H]5CC=C6CC(O[C@@H]7O[C@H](CO)[C@H](O)[C@H](O[C@@H]8O[C@H](CO)[C@@H](O)[C@H](O)[C@H]8O)[C@H]7O[C@H]7O[C@@H](C)[C@H](O)[C@@H](O)[C@H]7O)CC[C@]6(C)[C@H]5CC[C@]34C)N2C1 (stereo partly drawn) ? inactive

Check the results log: what was the call for CC(=O)Nc1ccc2c(c1)Cc1ccccc1-2 ? active

Check the results log: what was the call for Cc1cc(C)c(C2=C(OC(=O)CC(C)(C)C)C3(CCCC3)OC2=O)c(C)c1 ? inactive

Check the results log: what was the call for Cc1cc(C)cc(OP(=O)(Oc2cc(C)cc(C)c2)Oc2cc(C)cc(C)c2)c1 ? inactive

Check the results log: what was the call for NNC(=O)c1ccccc1 ? active

Check the results log: what was the call for CC(C)CCCCCOC(=O)c1ccccc1C(=O)OCCCCCC(C)C ? inactive
